Just for reference, patent US20250115600A1 is where these values come from.

# Lookup of reported IC50 keyed by entry
- target-entity: AKT2 (Homo sapiens (Human))
- Sequence (P31751 whole entry): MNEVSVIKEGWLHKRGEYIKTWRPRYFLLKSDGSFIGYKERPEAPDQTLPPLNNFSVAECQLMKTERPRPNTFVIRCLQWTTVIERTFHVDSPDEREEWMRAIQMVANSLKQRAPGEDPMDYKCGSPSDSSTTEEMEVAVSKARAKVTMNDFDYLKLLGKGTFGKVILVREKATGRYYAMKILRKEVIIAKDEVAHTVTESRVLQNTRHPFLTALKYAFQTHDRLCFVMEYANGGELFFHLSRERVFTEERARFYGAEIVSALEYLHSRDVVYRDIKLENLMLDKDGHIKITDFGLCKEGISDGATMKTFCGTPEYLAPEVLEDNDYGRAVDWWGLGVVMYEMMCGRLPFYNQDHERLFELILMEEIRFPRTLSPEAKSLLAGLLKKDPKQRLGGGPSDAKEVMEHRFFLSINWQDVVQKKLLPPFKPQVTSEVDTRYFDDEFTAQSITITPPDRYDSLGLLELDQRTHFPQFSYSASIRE
- experiment-notes: Live cell target engagement (NanoBRET) in HEK293 cells
- Assay type: cell-based
- assay-context: HEK293, 2 hours at 37° C.

- compound: "Nc1ncccc1-c1nc2ccc(-c3ccccc3)nc2n1-c1ccc(CCNCCc2ccc(C=O)c(O)c2)cc1"
  IC50: "0.1 to 0.5 µM"
- compound: "Nc1ncccc1-c1nc2ccc(-c3ccccn3)nc2n1-c1ccc(CNC(=O)Cc2ccc(C=O)c(O)c2)cc1"
  IC50: "> 0.5 µM"
- compound: "CN(Cc1ccc(-n2c(-c3cccnc3N)nc3ccc(-c4ccccc4)nc32)cc1)C(=O)Cc1ccc(C=O)c(O)c1"
  IC50: "0.1 to 0.5 µM"
- compound: "Nc1ncccc1-c1nc2cccnc2n1-c1ccc(CNC(=O)c2ccc(C=O)c(O)c2)cc1"
  IC50: "> 0.5 µM"
- compound: "CN(C(=O)CCc1ccc(C=O)c(O)c1)c1ccc(-n2c(-c3cccnc3N)nc3ccc(-c4ccccc4)nc32)cc1"
  IC50: "> 0.5 µM"
- compound: "Nc1ncccc1-c1nc2ccc(-c3ccccn3)nc2n1-c1ccc(CNCCc2ccc(C=O)c(O)c2)cc1"
  IC50: "0.1 to 0.5 µM"
- compound: "CC(=O)Nc1cccc(-c2ccc3nc(-c4cccnc4N)n(-c4ccc(CNC(=O)Cc5ccc(C=O)c(O)c5)cc4)c3n2)c1"
  IC50: "> 0.5 µM"
- compound: "Cc1c(CC(=O)NCc2ccc(-n3c(-c4cccnc4N)nc4ccc(-c5ccccc5)nc43)cc2)ccc(C=O)c1O"
  IC50: "0.1 to 0.5 µM"
- compound: "Nc1ncccc1-c1nc2ccc(-c3cccnc3)nc2n1-c1ccc(CNC(=O)C2(c3ccc(C=O)c(O)c3F)CC2)cc1"
  IC50: "> 0.5 µM"
- compound: "Nc1ncccc1-c1nc2ccc(-c3ccccc3)nc2n1-c1ccc(CCNCc2ccc(C=O)c(O)c2)cc1"
  IC50: "< 0.1 µM"
- compound: "Nc1ncccc1-c1nc2ccc(-c3cccnc3)nc2n1-c1ccc(CNCCc2ccc(C=O)c(O)c2)cc1"
  IC50: "> 0.5 µM"
- compound: "CC(=O)Nc1c(C=O)ccc(CCNCc2ccc(-n3c(-c4cccnc4N)nc4cccnc43)cc2)c1F"
  IC50: "> 0.5 µM"
- compound: "Nc1ncccc1-c1nc2ccc(-c3ccccc3)nc2n1-c1ccc(CNC(=O)Cc2cnc(C=O)c(O)c2)cc1"
  IC50: "> 0.5 µM"
- compound: "CC(NCCc1ccc(O)c(C=O)c1)c1ccc(-n2c(-c3cccnc3N)nc3ccc(-c4ccccc4)nc32)cc1 (centres unmarked)"
  IC50: "0.1 to 0.5 µM"
